target: Muscarinic acetylcholine receptor M3 (Homo sapiens) (UniProt P20309); experiment: Agonist activity at recombinant human muscarinic M3 receptor at 10 uM by aequorin reporter based assay relative to agonist; assay type: functional
Sequence (P20309 whole entry, looked up): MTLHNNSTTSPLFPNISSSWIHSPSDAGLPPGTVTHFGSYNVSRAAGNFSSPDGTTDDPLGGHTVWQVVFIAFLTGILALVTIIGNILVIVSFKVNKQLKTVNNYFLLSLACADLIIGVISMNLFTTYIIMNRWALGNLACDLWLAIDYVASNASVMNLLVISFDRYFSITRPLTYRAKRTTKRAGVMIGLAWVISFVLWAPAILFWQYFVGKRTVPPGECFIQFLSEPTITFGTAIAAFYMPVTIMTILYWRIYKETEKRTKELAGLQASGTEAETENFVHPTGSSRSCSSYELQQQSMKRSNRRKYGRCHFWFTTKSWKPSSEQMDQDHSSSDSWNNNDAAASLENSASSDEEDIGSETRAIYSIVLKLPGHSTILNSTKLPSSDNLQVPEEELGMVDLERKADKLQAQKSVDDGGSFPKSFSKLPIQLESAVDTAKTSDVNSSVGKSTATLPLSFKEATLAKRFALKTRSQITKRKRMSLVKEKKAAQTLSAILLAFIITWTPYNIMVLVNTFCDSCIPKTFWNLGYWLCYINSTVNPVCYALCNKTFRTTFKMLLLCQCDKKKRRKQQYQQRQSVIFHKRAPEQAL
Task for the reader: assign each of the following molecules its reported Activity.
Answers are plain numbers, in %.

smiles_representation | unit_descriptor | Activity
CN(CCNC(=O)c1ccc(C#N)cc1)Cc1ccccc1 | % | 0
COc1cccc(C(=O)NCCCN(C)Cc2ccccc2)c1 | % | 0
CCCc1ccc(C(=O)NCCCN(C)Cc2ccccc2)cc1 | % | -2
COc1ccc(C(=O)NCCCN(C)Cc2ccccc2)cc1 | % | 1
CN(CCCNC(=O)c1ccc(Cl)cc1)Cc1ccccc1 | % | 2

Please look at the items below and tell me Activity for each one, in order.
1. CN(CCNC(=O)c1ccc(Cl)cc1)Cc1ccccc1
2. CN(CCCNC(=O)c1ccc(Cl)cc1)CCc1ccccc1
3. CN(CCCNC(=O)c1ccc([N+](=O)[O-])cc1)Cc1ccccc1
4. CN(CCCNC(=O)c1cccc(Br)c1)Cc1ccccc1
5. CN(CCCNC(=O)c1ccc(C(F)(F)F)cc1)Cc1ccccc1

1: 0; 2: -1; 3: -2; 4: -2; 5: -2

Please look at the items below and tell me Activity for each one, in order.
1. CN(CCCNC(=O)c1ccc(Br)cc1)Cc1ccccc1
2. CN(CCNC(=O)c1ccc([N+](=O)[O-])cc1)Cc1ccccc1

1: 1; 2: 0
